Data origin, for the record: PubChem BioAssay

composite z-score overview
# Target or test system: Concanavalin-A (Canavalia ensiformis)
# Experiment summary: compounds binding concanavalin A lectin – biochemical, small-molecule microarray, Alexa647 label, 635 nm, artefact control for SMM control protein annotation, primary screen (AID 1127);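 further: z combines 667 nm emission intensity with signal-to-noise across three replicate slides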
# Test settings: ConA-A647 binding fluorescence, higher = more signal
Parameter measured: composite z-score

Compound	Numeric readout
[N-]=[N+]=NCc1ccccc1C[C@]1(C(=O)NCCN2CCOCC2)N=C(c2ccc(OCCCO)cc2)O[C@H]1c1ccccc1CN=[N+]=[N-]	1.05
COCCCNC(=O)[C@]1(Cc2ccccc2N=[N+]=[N-])N=C(c2ccc(OCCCO)cc2)O[C@@H]1c1ccccc1CN=[N+]=[N-]	1.13
COc1ccc([Si](C)(C)[C@@H]2[C@@H](CC(=O)N3Cc4ccccc4C[C@H]3CO)O[C@]3(C(=O)N(Cc4cccc(N5C(=O)COc6ccccc65)c4)c4ccccc43)[C@H]2C)cc1	1.11
C=CCN1Cc2ccccc2C[C@]2(N=C(c3ccc(OCCCO)cc3)O[C@@H]2c2ccccc2)C1=O	1.18
CCCCCCCCCCC(O)C1C=CC2C(=O)N(c3ccccc3)C(=O)C2N1Nc1ccc([N+](=O)[O-])cc1 (stereo unspecified)	1.05
COCCOC(=O)N1C(=O)[C@@]2(c3cc(C#CC4=CCCCC4)ccc31)[C@H](C(=O)N1CCN(c3ncccn3)CC1)[C@H]1C(=O)O[C@H](c3ccccc3)[C@H](c3ccccc3)N1[C@@H]2c1ccc(OCCO)cc1	1.04

====

# Experiment summary: JC-1 mitochondrial signal, unstimulated MM1S myeloma – cell-based, JC-1 fluorescence, 24 h, 100 nL compound, profiling panel (AID 1170); further: test concentration not given here
# Test settings: MM1S mitochondrial potential, higher = more signal
z-score overview

Compound	z-score
CN(C)CCCN1C(=O)[C@@]2(c3ccc([N+](=O)[O-])cc3)CC(=O)N(C3CCCCC3)[C@@H]2c2ccc(CO)cc21	-0.725
CCCCN1CC=CC23O[C@@H]4C=CCCOC(=O)C4[C@H]2C(=O)N(CCCO)[C@@H]3C1=O (stereo partly specified)	-0.148
O=C1O[C@@H](c2ccccc2)[C@@H](c2ccccc2)N2[C@@H](c3ccc(O)cc3)[C@]3(C(=O)Nc4ccc(C#CCCO)cc43)[C@@H](C(=O)O)[C@H]12	-0.29
O=C1C[C@@](C(=O)O)(c2ccc([N+](=O)[O-])cc2)[C@@H](c2ccc(CO)cc2I)N1CC12CC3CC(CC(C3)C1)C2	-2.41
C=CCOC(=O)[C@H]1[C@@H]2C(=O)O[C@@H](c3ccccc3)[C@@H](c3ccccc3)N2[C@@H](c2ccc(OCCOC(=O)[C@H]3C[C@H]4C(=O)N[C@@H](CCCC[N+](C)(C)C)C(=O)N4[C@H]3c3ccc(O)cc3)cc2)[C@]12C(=O)Nc1ccccc12	-0.0465
[N-]=[N+]=NCc1ccccc1C[C@@]1(C(=O)NCc2ccccc2)N=C(c2ccc(OCCCO)cc2)O[C@@H]1c1ccccc1CN=[N+]=[N-]	-1.32

====

z-score overview
# Experiment summary: blood-stage malaria parasite viability loss – strain 3D7, DAPI fluorescence, 100 nL, primary screen (AID 1184);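 further: parasites grown inside human red blood cells in medium with human serum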
# Test settings: P. falciparum 3D7 growth, 3 d, higher = more signal
Parameter measured: z-score

Compound	Result
CCCC[C@H]1C[C@@H]1[C@@H]1N(P(=O)(c2ccccc2)c2ccccc2)[C@](CO)(c2ccccc2)CC12CC2	0.791
Cn1c2c(c3ccccc31)C(=O)C1NC2C=CC1(C)C(=O)OCc1ccccc1 (centres undefined)	-0.502
Cc1c(NC(=O)/C(C#N)=C/C=C/c2ccccc2)c(=O)n(-c2ccccc2)n1C	-0.582
CCOC(=O)C[C@H]1[C@H](OC(=O)c2ccc(C(=O)c3ccccc3)cc2)[C@@H](NC(=O)c2ccc3ccccc3n2)c2cc(OCCCO)ccc2N1C(=O)c1ccc2ccccc2n1	-2.55

====

# Experiment summary: blood-stage malaria parasite viability loss – strain 3D7, DAPI fluorescence, 100 nL, primary screen (AID 1184);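 further: parasites grown inside human red blood cells in medium with human serum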
# Test settings: P. falciparum 3D7 growth, 3 d, higher = more signal
z-score overview

Compound	z-score
COCCOC(=O)N1C(=O)[C@@]2(c3cc(C#CCCO)ccc31)[C@H](C(=O)NC[C@H](O)c1ccccc1)[C@H]1C(=O)O[C@H](c3ccccc3)[C@H](c3ccccc3)N1[C@@H]2c1ccc(OCCO)cc1	-1.99
CCCNC(=O)[C@@]1(C)c2ccccc2C(=O)N(C(C)C)[C@H]1c1ccc(CO)cc1	-1.46
NC(=O)NCC#Cc1ccc2c(c1)[C@]1(C(=O)N2)[C@H](c2ccccc2OCCO)N2[C@H](c3ccccc3)[C@H](c3ccccc3)OC(=O)[C@H]2[C@@H]1C(=O)N1CCCCCCC1	-2.04
CC(C)(C)OC(=O)CC[C@@]1(C(N)=O)N=C(c2ccc(OCCCO)cc2)O[C@@H]1c1ccccc1N=[N+]=[N-]	-0.338
C=C(COC)/C(=C/C[C@H](OC(C)=O)c1ccccc1OCCO)c1cnc2ccccc2c1	-2.82
Cc1ccc([C@H]2C(C(=O)O)=C[C@@H](C(C)C)N2S(=O)(=O)c2ccc(C)cc2)cc1	1.65
O=C1OCC=C[C@H]2OC34C=CCN(c5ccc(Cl)cc5)C(=O)[C@H]3N(CCCO)C(=O)[C@@H]4[C@@H]12 (stereo partly drawn)	-1.39
C=CCC(OC(C)=O)[C@@H]1[C@@H](N(Cc2ccc(-c3cccc(C(F)(F)F)c3)o2)C(=O)Cc2ccc(OC)cc2)c2cc(OCCCO)ccc2N1C(=O)Cc1ccc(OC)cc1 (stereo partly drawn)	-2.23
COCCCNC(=O)[C@@]1(C)c2ccccc2C(=O)N(Cc2ccccc2)[C@H]1c1ccc(CO)cc1	-1.35
O=C1[C@H]2C=C(Br)[C@H](C[C@@H]2OCCOCCO)[C@@]12CO2	-0.334
O=C1C[C@@](C(=O)O)(c2ccc([N+](=O)[O-])cc2)[C@@H](c2ccc(CO)cc2I)N1CC12CC3CC(CC(C3)C1)C2	-1.92
C=CCNC(=O)[C@@H]1[C@H]2C(=O)O[C@H](c3ccccc3)[C@H](c3ccccc3)N2[C@H](c2ccccc2OCCO)[C@@]12C(=O)N(C(=O)OCCOC)c1ccc(C#CCC(C(=O)OC)C(=O)OC)cc12	-2.14
CN(C)CCCCCCNC(=O)[C@@H]1C[C@@H]2C(=O)N[C@@H](Cc3ccccc3)C(=O)N2[C@@H]1c1cccc(OCCO)c1	0.526
O=C1OCC=C[C@H]2OC34C=CCN(c5ccc6ccccc6c5)C(=O)[C@H]3N(CCO)C(=O)[C@@H]4[C@@H]12 (stereo partly drawn)	0.666
C=CCN1C(=O)[C@]2(Cc3ccccc31)N=C(c1ccc(OCCCO)cc1)O[C@@H]2c1ccccc1	-2.07
COc1ccc(C(=O)Nc2cccc(CN3C(=O)[C@@]4(O[C@@H](CC(=O)N5Cc6ccccc6C[C@H]5CO)[C@H]([Si](C)(C)c5ccc(OC)cc5)[C@H]4C)c4ccccc43)c2)cc1	-2.64
[N-]=[N+]=NCc1ccccc1[C@@H]1OC(c2ccc(OCCCO)cc2)=N[C@]1(Cc1ccccc1)C(=O)O	0.615
COCCCNC(=O)[C@@]1(Sc2ccc(C)cc2)CC(=O)N(Cc2ccccc2)[C@@H]1c1ccc(CO)cc1	-0.471
C=CCNC(=O)[C@H]1[C@@H]2C(=O)O[C@@H](c3ccccc3)[C@@H](c3ccccc3)N2[C@@H](c2ccc(OCCO)cc2)[C@]12C(=O)N(C(=O)OCCOC)c1ccc(C#CC3(O)CCCCCC3)cc12	-1.91
COC(=O)c1c2oc(c1C(=O)OC)C(=O)N[C@H](Cc1ccccc1)Cn1nncc1C1(CCCCC1)NC(=O)N[C@H](CO)CC2	1.06
COCCOC(=O)N1C(=O)[C@@]2(c3cc(C#Cc4ccc(OC)cc4)ccc31)[C@H](c1ccc(O)cc1)N1[C@H](c3ccccc3)[C@H](c3ccccc3)OC(=O)[C@H]1[C@@H]2C(=O)N1CCN(c2ncccn2)CC1	-1.86
CC(c1ccccc1)C(O)C1C=CC2C(=O)N(c3ccccc3)C(=O)C2N1Nc1ccccc1F (stereo not drawn)	-0.436
CC[C@@H]1C=C(C(=O)O)[C@H](c2ccc(C(C)C)cc2)N1S(=O)(=O)c1ccc(C)cc1	-0.646
COc1cc(NN2C(C(O)c3ccccc3)C=CC3C(=O)N(c4ccccc4)C(=O)C32)cc(OC)c1OC (stereo not drawn)	-0.634
COc1ccccc1CN1C(=O)c2ccccc2[C@](Cc2ccccc2I)(C(=O)NCc2ccccc2)[C@@H]1c1ccc(CO)cc1	-0.818
O=C1OCC=C[C@H]2OC34C=CCN(CCN5CCOCC5)C(=O)[C@H]3N(CCCCCCO)C(=O)[C@@H]4[C@@H]12 (stereo partly drawn)	-0.448
CC(C)C(CO)N1C(=O)[C@@H]2[C@H]3C(=O)OCC=C[C@H]3OC23C=CCN(c2ccc4ccccc4c2)C(=O)[C@@H]13 (stereo partly drawn)	-0.279
O=P(NCC1(CC2(c3ccccc3)CO2)CC1)(c1ccccc1)c1ccccc1 (stereo not drawn)	0.561
